B1: PKD2L1 (parent)
chain: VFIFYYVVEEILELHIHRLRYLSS

- Variants of: B1
- PROCEDURE_DETAILS: protein stability index of a GFP-peptide fusion (GPS, HEK-293T) (PSI 1-6); higher = more stable;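 note: lentivirally expressed fusions sorted by FACS into six bins by GFP to DsRed ratio, PSI derived from sequencing read proportions per bin multiplied by bin number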
- CONDITION: c terminus: a fixed tail appended
TEST_READOUT: protein stability index
Output: the number by itself.

Consider the reported protein stability index for these variants:
VFPFYYVVEEILELHIHRLRYLSS :: 3.06
VFIFYYVVEEILELHIHRLRTLSS :: 3.04
VFIFYYVVEEILCLHIHRLRYLSS :: 3.03

In the following, a different variant is considered.
query: protein stability index lookup needed for VYIFYYVVEEILELHIHRLRYLSS , thanks.
result: 3.06
